src = ChEMBL document CHEMBL3988442

Measured Percent Effect, listed per entry for reference.
System: Wolbachia pipientis
protocol: Anti-Wolbachia Cell-Based Screen
Format: functional
Set-up: scale not given: in the data most compounds retested in dose-response had high values
measurement-setup: 5 µM
Among all 48,000 compounds or so, about 13,000 (27%) showed an effect of 50% or more. The list shows a part of the results.
Supply the numeric figure in %, leaving out any unit text.

| compound | measurement-units | Percent Effect |
| --- | --- | --- |
| COc1cc(CNc2ccccc2Cl)ccc1OCC(=O)O | % | 86.61 |

Percent Effect reading for Cc1nnc(NC(=O)NCCCN2CCC(C(N)=O)CC2)s1 : 105

// CC(=O)N1CCC(C(=O)NC2CC(C)(C)Oc3cc(C)ccc32)CC1 (centres undefined) : Percent Effect value = -7.853

In plain terms, CC(=O)NCC[C@H]1CC(C)(C)Oc2ccccc21 has a documented Percent Effect of 133.5

Looking up COc1ccc(-n2nnc(C(=O)NCC3CCCCC3)n2)cc1 , I see its Percent Effect listed as -6.383

For record Cc1ccc(NC(=O)CCC2CC2)cc1N1CCOC1=O the listed Percent Effect is -7.551

Field Percent Effect (entry Cc1nc(C)n(CC2CN(c3ncccc3C#N)CCO2)n1 (centres undefined) ) reads 109.9

For this compound ( N#Cc1ccc(CN2CCCC(Cn3cncn3)C2)c(F)c1 (centres undefined) ), measured Percent Effect is 10.83

Given item CS(=O)(=O)NCCN1CCSCC1c1ccc(Cl)cc1 (centres undefined) , the value recorded as its Percent Effect is 7.054

The compound listed as Cc1nc2c(c(NCc3ccccc3)n1)CCN(C(=O)NC(C)C)CC2 has a reported Percent Effect of 7.807

The recorded Percent Effect for Cc1ccc2c(c1)OC(C)(C)CC2NC(=O)C1CCN(C)CC1 (centres undefined) is -0.1155

Sample CCc1cc(N[C@H](C(N)=O)[C@@H](C)CC)n2nccc2n1 ; Percent Effect observed: -8.924

Sure, the documented Percent Effect for CC(C)C(C(=O)NCc1ccccc1-n1cccn1)N(C)C (centres undefined) is -20.85

Looking up O=S1(=O)c2cnccc2OC(COc2ccccc2)CN1CC1CC1 (centres undefined) , I see its Percent Effect listed as 96.1

Consider CSc1ccc(-c2cc(CN)nc3ccnn23)cc1.Cl . Its measured Percent Effect is 95

Input COc1cc(CNc2ccc(Cl)cc2)ccc1OCC(=O)O . Output Percent Effect: 106

Percent Effect in this record for O=C(c1nnn(-c2ccc(C(F)(F)F)cc2)n1)N1CC(O)C1 : 9.515

Reported Percent Effect ( COc1cc(OC)cc(-c2cc(CN)nc3ccnn23)c1.Cl ) = 104.2

The compound identified as COc1cccc(OCC2CCCN(C(C)=O)C2)c1 (centres undefined) registered its Percent Effect at -1.082

Percent Effect reading for CC(NC(=O)N1CCN(c2ccc(Cl)cc2)CC1)C(=O)N1CCSCC1 (centres undefined) : -1.833
